Where these numbers come from: the Human Domainome abundance scans (Beltran et al. 2025)

Listed here are variants together with their documented abundance fitness.
B1: Dystrobrevin alpha, residues 235 to 294; numbered along this chain, Q9Y4J8 (parent)
chain: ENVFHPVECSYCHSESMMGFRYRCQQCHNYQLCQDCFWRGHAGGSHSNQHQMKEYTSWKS

Variants of: B1
protocol_notes: abundance fitness (aPCA) (normalised: wild type 0, dead -1); higher = more abundant; growth selection in yeast, the domain comes from the species named
experimental_conditions: Homo sapiens
readout_name: abundance fitness

item_sequence	readout_name	experimental_result
ENVFHPVECSYCHSESMMGFRYRCQQCHNYQLCQDVFWRGHAGGSHSNQHQMKEYTSWKS [C36V]	abundance fitness	-0.873
ENVFHPVECSYCHSESMMGFRYRCQQKHNYQLCQDCFWRGHAGGSHSNQHQMKEYTSWKS [C27K]	abundance fitness	-0.745
ENVFHPVECSYCHSESMMGFRYRCQQCHNYQLCQDCFWRLHAGGSHSNQHQMKEYTSWKS [G40L]	abundance fitness	-0.384
DNVFHPVECSYCHSESMMGFRYRCQQCHNYQLCQDCFWRGHAGGSHSNQHQMKEYTSWKS [E1D]	abundance fitness	0.028
ENVFHPVECSYCHSESMMGFRYRCQQCHNYQLCQDCFWRGHAGGSHSNQHQVKEYTSWKS [M52V]	abundance fitness	-0.025
ENVFHPVECSYCHSESMMGFRYRCQQCHNYQLCQDCFWRGHAGGTHSNQHQMKEYTSWKS [S45T]	abundance fitness	0.098
ENVFHPVECSYCHSESMMGFRYRCQQCHNYQLCQDCFWRGHAGGSHSNQHQMKEYLSWKS [T56L]	abundance fitness	-0.462
ENVFHPVECSYCHSESMMGFRYRCQQCHNYQLCQDCFWRGHAGGSHSNQHPMKEYTSWKS [Q51P]	abundance fitness	-0.091
ENVFHPVECSYCHSESMMGFRYGCQQCHNYQLCQDCFWRGHAGGSHSNQHQMKEYTSWKS [R23G]	abundance fitness	-0.158
ENVFHPVECSYCMSESMMGFRYRCQQCHNYQLCQDCFWRGHAGGSHSNQHQMKEYTSWKS [H13M]	abundance fitness	-0.109
ENVFHPVECSYCHSESMMGFRYRCQQCHNYQLCQDCFWRGHAGGSWSNQHQMKEYTSWKS [H46W]	abundance fitness	-0.427
